These entries and their values trace back to patent US20240400564A1.

biological target: hERG (Homo sapiens); assay: Patch clamp assay (hERG tail currents, whole-cell); details: 30 μM compound
Sequence (Q12809 whole entry): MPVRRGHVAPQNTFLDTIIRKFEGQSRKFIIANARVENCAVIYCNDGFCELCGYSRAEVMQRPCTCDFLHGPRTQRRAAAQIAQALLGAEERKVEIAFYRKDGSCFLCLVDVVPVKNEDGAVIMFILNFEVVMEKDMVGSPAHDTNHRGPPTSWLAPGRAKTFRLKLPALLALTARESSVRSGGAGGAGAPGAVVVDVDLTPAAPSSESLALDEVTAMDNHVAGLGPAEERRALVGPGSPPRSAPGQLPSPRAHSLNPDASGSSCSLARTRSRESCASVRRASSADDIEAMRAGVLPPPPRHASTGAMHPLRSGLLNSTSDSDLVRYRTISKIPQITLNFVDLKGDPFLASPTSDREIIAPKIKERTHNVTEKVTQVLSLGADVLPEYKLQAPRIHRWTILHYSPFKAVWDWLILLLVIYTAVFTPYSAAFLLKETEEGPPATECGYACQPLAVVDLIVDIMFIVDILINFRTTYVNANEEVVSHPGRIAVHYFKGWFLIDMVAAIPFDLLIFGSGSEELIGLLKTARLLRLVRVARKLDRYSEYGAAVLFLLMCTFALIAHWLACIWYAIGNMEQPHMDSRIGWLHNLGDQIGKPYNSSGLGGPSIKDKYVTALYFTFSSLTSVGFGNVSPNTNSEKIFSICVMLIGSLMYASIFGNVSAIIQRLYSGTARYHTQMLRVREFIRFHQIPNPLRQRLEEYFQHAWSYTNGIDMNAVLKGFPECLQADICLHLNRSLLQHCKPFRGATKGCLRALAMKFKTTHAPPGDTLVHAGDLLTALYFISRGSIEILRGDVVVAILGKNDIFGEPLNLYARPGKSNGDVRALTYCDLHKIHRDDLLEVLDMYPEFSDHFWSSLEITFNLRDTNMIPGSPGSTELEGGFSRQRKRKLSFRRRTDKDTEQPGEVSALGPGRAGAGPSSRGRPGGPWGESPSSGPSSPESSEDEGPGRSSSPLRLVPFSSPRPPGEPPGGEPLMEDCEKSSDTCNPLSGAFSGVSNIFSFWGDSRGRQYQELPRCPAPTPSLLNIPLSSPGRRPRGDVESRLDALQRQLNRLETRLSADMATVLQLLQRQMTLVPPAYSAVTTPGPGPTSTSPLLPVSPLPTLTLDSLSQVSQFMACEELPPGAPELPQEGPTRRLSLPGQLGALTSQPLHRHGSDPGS
assay metric: hERG % Remaining

Solved cases (10 shown):
compound	test system	hERG % Remaining
CC(C)N(C(=O)c1cc(F)ccc1Oc1cncnc1N1CC2(CCN(C[C@@H]3CC[C@@H](NS(=O)(=O)C4CC4)CO3)CC2)C1)[C@@H]1CCOC1	hERG (Homo sapiens)	+++ (≥66%)
CC(C)N(C(=O)c1cc(F)ccc1Oc1cncnc1N1CC2(CCN(C[C@@H]3CC[C@@H](NS(=O)(=O)N(C)C(C)C)CO3)CC2)C1)C1CC(F)(F)C1	hERG (Homo sapiens)	+ (<33%)
CC(C)N(C)C(=O)c1cc(F)ccc1Oc1cncnc1N1CC2(CCN(C[C@@H]3CC[C@@H](NS(=O)(=O)N4CCC4)CO3)CC2)C1	hERG (Homo sapiens)	+++ (≥66%)
C[C@@H]1COC[C@H](C)N1C(=O)c1cc(F)ccc1Oc1cncnc1N1CC2(CCN(C[C@@H]3CC[C@@H](NS(=O)(=O)N4CCC4)CO3)CC2)C1	hERG (Homo sapiens)	+++ (≥66%)
CC(C)N(C(=O)c1cc(F)ccc1Oc1cncnc1N1CC2(CCN(C[C@@H]3CC[C@@H](NS(=O)(=O)N(C)C)CO3)CC2)C1)[C@@H]1CCOC1	hERG (Homo sapiens)	+++ (≥66%)
CC(C)N(C(=O)c1cc(F)ccc1Oc1cncnc1N1CC2(CCN(C[C@@H]3CC[C@@H](NS(=O)(=O)c4cnn(C)c4Cl)CO3)CC2)C1)C(C)C	hERG (Homo sapiens)	+ (<33%)
CC(C)N(C(=O)c1cc(F)ccc1Oc1cncnc1N1CC2(CCN(C[C@@H]3CC[C@@H](NS(=O)(=O)N4CC5COCC5C4)CO3)CC2)C1)C(C)C (some centres unmarked)	hERG (Homo sapiens)	+++ (≥66%)
CC(C)N(C(=O)c1cc(F)ccc1Oc1cncnc1N1CC2(CCN(C[C@@H]3CC[C@@H](NS(=O)(=O)c4cnn(C)c4)CO3)CC2)C1)C(C)C	hERG (Homo sapiens)	+++ (≥66%)
Cc1nn(C)cc1S(=O)(=O)N[C@@H]1CC[C@@H](CN2CCC3(CC2)CN(c2ncncc2Oc2ccc(F)cc2C(=O)N(CC(F)F)C(C)C)C3)OC1	hERG (Homo sapiens)	+++ (≥66%)
CC(C)N(CC#N)C(=O)c1cc(F)ccc1Oc1cncnc1N1CC2(CCN(C[C@@H]3CC[C@@H](NS(=O)(=O)N(C)C)CO3)CC2)C1	hERG (Homo sapiens)	+++ (≥66%)

(Q) Find hERG % Remaining (hERG (Homo sapiens)) for the entry `CC(C)N(CC(F)F)C(=O)c1cc(F)ccc1Oc1cncnc1N1CC2(CCN(C[C@@H]3CC[C@@H](NS(=O)(=O)N(C)CCO)CO3)CC2)C1`
(A) +++ (≥66%)

(Q) // next record `CC(C)N(C(=O)c1cc(F)ccc1Oc1cncnc1N1CC2(CCN(C[C@@H]3CC[C@@H](NS(=O)(=O)N(C)C)CO3)CC2)C1)C1CC(F)(F)C1`
(A) ++ (233% and ≤66%)

(Q) // next record `CC(C)N(C(=O)c1cc(F)ccc1Oc1cncnc1N1CC2(CCN(C[C@@H]3CC[C@@H](NS(=O)(=O)c4ccn(C)n4)CO3)CC2)C1)C(C)C`
(A) +++ (≥66%)

(Q) // next record `CC(C)N(CCC#N)C(=O)c1cc(F)ccc1Oc1cncnc1N1CC2(CCN(C[C@@H]3CC[C@@H](NS(=O)(=O)N(C)C)CO3)CC2)C1`
(A) +++ (≥66%)
